Data provenance: PubChem BioAssay AID485346

Recorded inhibition by entry
study.system: Protein Mdm4 (Homo sapiens) + E3 ubiquitin-protein ligase Mdm2 (Homo sapiens) (UniProt O15151+Q00987)
Sequence (O15151 whole entry, looked up): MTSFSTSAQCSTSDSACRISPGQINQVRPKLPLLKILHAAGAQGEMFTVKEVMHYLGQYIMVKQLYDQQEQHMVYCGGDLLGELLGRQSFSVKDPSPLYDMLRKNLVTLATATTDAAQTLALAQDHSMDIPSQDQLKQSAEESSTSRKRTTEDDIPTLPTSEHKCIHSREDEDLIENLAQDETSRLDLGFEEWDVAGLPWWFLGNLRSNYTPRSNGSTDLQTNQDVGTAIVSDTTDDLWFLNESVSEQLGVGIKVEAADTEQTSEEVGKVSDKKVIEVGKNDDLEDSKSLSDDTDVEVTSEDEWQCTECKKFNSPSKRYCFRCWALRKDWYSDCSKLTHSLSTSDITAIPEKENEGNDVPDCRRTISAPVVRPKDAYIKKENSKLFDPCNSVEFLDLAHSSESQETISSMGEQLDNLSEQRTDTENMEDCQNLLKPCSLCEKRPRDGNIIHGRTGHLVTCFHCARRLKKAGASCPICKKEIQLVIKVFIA
Sequence (Q00987 whole entry, looked up): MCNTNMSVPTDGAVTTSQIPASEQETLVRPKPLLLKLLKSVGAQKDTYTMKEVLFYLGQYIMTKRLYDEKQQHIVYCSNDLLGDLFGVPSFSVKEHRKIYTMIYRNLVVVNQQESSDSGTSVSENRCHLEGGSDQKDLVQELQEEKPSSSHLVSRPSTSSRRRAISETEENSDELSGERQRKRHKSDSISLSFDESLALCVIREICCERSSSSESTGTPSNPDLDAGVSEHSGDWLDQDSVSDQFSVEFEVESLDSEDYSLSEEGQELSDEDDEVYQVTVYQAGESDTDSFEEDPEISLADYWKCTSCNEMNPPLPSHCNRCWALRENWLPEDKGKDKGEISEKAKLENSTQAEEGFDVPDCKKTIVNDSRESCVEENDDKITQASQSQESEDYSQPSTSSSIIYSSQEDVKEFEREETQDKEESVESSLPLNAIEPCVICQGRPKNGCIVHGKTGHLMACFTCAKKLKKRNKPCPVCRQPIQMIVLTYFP
assay.notes: inhibitors of human Mdm2-MdmX association, primary screen, cell-based, luminescence, split luciferase, SaOS-2, uHTS (AID 485346)
measurement.context: SaOS-2 split-luciferase Mdm2/MdmX complementation, at 8 µM, stronger effect = higher value
In all, about 330,000 compounds went through this assay and about 10,000 (3%) were called active. The full list was thinned out, with actives kept by preference.
Your answer is read as %, so omit the unit and give the number.

[[record]]
molecule = "CC(C)(C)c1ccc(/C=C/C(=O)Nc2ncccn2)cc1"
measurement_kind = "inhibition"
val = -199

[[record]]
molecule = "CC(=O)Nc1ccc(S(=O)(=O)NCC(=O)OCc2cc(=O)oc3ccc4ccccc4c23)cc1"
measurement_kind = "inhibition"
val = -8.78

[[record]]
molecule = "CCOC(=O)C1CCN(Cc2c(C(=O)N3CCOCC3)nc3c(C)cccn23)CC1"
measurement_kind = "inhibition"
val = 15.2

[[record]]
molecule = "Cc1c(C(=O)N/N=C/c2ccccc2)[nH]c2c([N+](=O)[O-])cccc12"
measurement_kind = "inhibition"
val = 60

[[record]]
molecule = "O=C1NC2(CCCCC2)N=C1c1ccccc1"
measurement_kind = "inhibition"
val = 4.91

[[record]]
molecule = "COc1ccccc1NC(=O)/C=C/C(N)=O"
measurement_kind = "inhibition"
val = 6.78

[[record]]
molecule = "Cc1n[nH]c(=O)c2c(NC(=O)COC(=O)c3ncc(Cl)c(Cl)c3Cl)oc(C)c12"
measurement_kind = "inhibition"
val = 8.36

[[record]]
molecule = "CCNCCC(=O)N1c2ccccc2Sc2ccc(NC(=O)OCC)cc21"
measurement_kind = "inhibition"
val = 11.1

[[record]]
molecule = "C/C=C/C=C/C(=O)O"
measurement_kind = "inhibition"
val = 19.9

[[record]]
molecule = "O=C1c2ccccc2C(=O)C1c1ccccc1F"
measurement_kind = "inhibition"
val = -3.2


Query: Look up and report measured inhibition for this entry: N#Cc1c(N)sc2c1CCN(C(=O)OCc1ccccc1)C2
Result: 17.8

Query: Look up and report measured inhibition for this entry: Cc1cc(C)c(C#N)c(SCC(=O)Nc2ccccc2)n1
Result: -38.3

Query: Look up and report measured inhibition for this entry: COC(C[C@@H](O)C[C@H](O)[C@H](C)OCc1ccccc1)OC
Result: -23

Query: Look up and report measured inhibition for this entry: O=C1C=C(c2cc(C(F)(F)F)cc(C(F)(F)F)c2)C[C@@H](c2ccc3c(c2)OCO3)C1
Result: 15.2

Query: Look up and report measured inhibition for this entry: O=C(CSc1nccn1-c1cccc(F)c1)NC1CCCC1
Result: 6.79

Query: Look up and report measured inhibition for this entry: Cc1cccc(Nc2nc(NCCO)nc(N3CCCC3)n2)c1
Result: -22.4

====

study.system: Protein Mdm4 (Homo sapiens) + E3 ubiquitin-protein ligase Mdm2 (Homo sapiens) (UniProt O15151+Q00987)
assay.notes: inhibitors of human Mdm2-MdmX association, primary screen, cell-based, luminescence, split luciferase, SaOS-2, uHTS (AID 485346)
measurement.context: SaOS-2 split-luciferase Mdm2/MdmX complementation, at 8 µM, stronger effect = higher value
The campaign covered roughly 330,000 compounds. About 10,000 (3%) were called active. The list comes from a sample in which actives are over-represented; it also holds close analogues and randomly drawn compounds.
measurement.kind: inhibition (%)
Your answer is read as %, so omit the unit and give the number.

[[record]]
compound = "O=C(CC1SC(N2CCCC2)=NC1=O)Nc1ccc(C(=O)NCCc2ccc(F)cc2)cc1 (stereo not given)"
measurement_kind = "inhibition"
val = 33.7

[[record]]
compound = "O=C(Nc1cccc(O)c1)c1ccc(C(=O)c2ccccc2)o1"
measurement_kind = "inhibition"
val = -23.5

[[record]]
compound = "CCN(CC)c1ccc(/C=N/NC(=O)c2cnccn2)c(O)c1"
measurement_kind = "inhibition"
val = 72.8

[[record]]
compound = "Cc1cc(Nc2cccc(C)c2C)n2ncnc2n1"
measurement_kind = "inhibition"
val = -28.4

[[record]]
compound = "CN(C)c1ccc(-c2nnc(-c3cccnc3)o2)cc1"
measurement_kind = "inhibition"
val = -90.9

[[record]]
compound = "O=C(Nc1ccc(N2CCN(C(=O)c3cccs3)CC2)cc1)c1cccnc1Cl"
measurement_kind = "inhibition"
val = -22.2

[[record]]
compound = "COc1ccc(C(O)(C2CCCCC2)C(CN2CCCC2)c2ccccc2)cc1 (stereo not given)"
measurement_kind = "inhibition"
val = 33.8

[[record]]
compound = "CCOc1cc(NC(=S)NCCCN(C)C)c(OCC)cc1NC(=O)C1CC1"
measurement_kind = "inhibition"
val = 3.9


Query: Look up and report measured inhibition for this entry: COc1ccc(CN2CN(C3CCCC3)CSC2=S)cc1
Result: 34.2

Query: Look up and report measured inhibition for this entry: COc1ccc(-c2cc(C(=O)N(C)Cc3ccc(OC)c(OC)c3OC)c3ccccc3n2)cc1OC
Result: 63.2

Query: Look up and report measured inhibition for this entry: CCCOc1ccc(C2=CSC3=NCCN23)cc1Cl
Result: 28.9

====

study.system: Protein Mdm4 (Homo sapiens) + E3 ubiquitin-protein ligase Mdm2 (Homo sapiens) (UniProt O15151+Q00987)
assay.notes: inhibitors of human Mdm2-MdmX association, primary screen, cell-based, luminescence, split luciferase, SaOS-2, uHTS (AID 485346)
measurement.context: SaOS-2 split-luciferase Mdm2/MdmX complementation, at 8 µM, stronger effect = higher value
In all, about 330,000 compounds went through this assay and about 10,000 (3%) were called active. What follows is part of a selection rich in actives, with near analogues and random picks from the rest.
Recorded inhibition by entry
Your answer is read as %, so omit the unit and give the number.

Worked set:
[[record]]
compound = "CCOc1cc(C(=O)N2CCc3cc(OC)c(OC)cc3C2)ccc1OC(F)F"
val = 51

[[record]]
compound = "COc1cc2c(cc1OC)CN(C(=O)c1cc(=O)c3ccccc3o1)CC2"
val = 49.8

[[record]]
compound = "Cc1cc(C)c2[nH]c(=O)c(CN(Cc3ccccc3)C(=S)NCCCN(C)C)cc2c1"
val = 90.9

[[record]]
compound = "Cc1cccc2cc(CN(Cc3cccs3)C(=S)NCc3ccco3)c(=O)[nH]c12"
val = 19.1

[[record]]
compound = "COCCCNc1nc2c(-c3cccc(C(F)(F)F)c3)nnn2c2ccccc12"
val = 17.3


Moving on to another compound below.
Query: Look up and report measured inhibition for this entry: CCCOc1cccc(C(=O)Nc2nnn(CCC)n2)c1
Result: -17.9

====

Recorded inhibition by entry
study.system: Protein Mdm4 (Homo sapiens) + E3 ubiquitin-protein ligase Mdm2 (Homo sapiens) (UniProt O15151+Q00987)
assay.notes: inhibitors of human Mdm2-MdmX association, primary screen, cell-based, luminescence, split luciferase, SaOS-2, uHTS (AID 485346)
measurement.context: SaOS-2 split-luciferase Mdm2/MdmX complementation, at 8 µM, stronger effect = higher value
The whole screen tested about 330,000 compounds, of which about 10,000 (3%) were called active. This excerpt belongs to a sample that is enriched for actives.
Your answer is read as %, so omit the unit and give the number.

Worked set:
[[record]]
substance_smiles = "COc1ccc(-c2nnc(NC(=O)CS(=O)(=O)c3ccc(Cl)cc3)o2)c(OC)c1"
val = -3.12

[[record]]
substance_smiles = "CC(C)C[C@H](NC(=O)Nc1cccc(C(F)(F)F)c1)C(=O)O"
val = 29.7

[[record]]
substance_smiles = "CC(=O)NCc1ccc(-c2csc(NC(=O)CCCc3nc4ccccc4c(=O)[nH]3)n2)cc1"
val = 6.81

[[record]]
substance_smiles = "O=C(NC(=S)Nc1ccc(Cl)cc1Cl)C1CC1"
val = -39.2


Query: Look up and report measured inhibition for this entry: O=C(Nc1ccc(C(=O)N2CCOCC2)cc1)Nc1cccc(C(F)(F)F)c1
Result: 54.6

====

study.system: Protein Mdm4 (Homo sapiens) + E3 ubiquitin-protein ligase Mdm2 (Homo sapiens) (UniProt O15151+Q00987)
assay.notes: inhibitors of human Mdm2-MdmX association, primary screen, cell-based, luminescence, split luciferase, SaOS-2, uHTS (AID 485346)
measurement.context: SaOS-2 split-luciferase Mdm2/MdmX complementation, at 8 µM, stronger effect = higher value
The campaign covered roughly 330,000 compounds. About 10,000 (3%) were called active. The list comes from a sample in which actives are over-represented; it also holds close analogues and randomly drawn compounds.
Response key: 1 means inhibition >= 20%; 0 means inhibition < 20%.

# count of solved cases: 5
[[record]]
molecule = "O=[N+]([O-])c1c(NCCO)cc(Sc2nc3ccccc3s2)c2nonc12"
label_value = 1

[[record]]
molecule = "COc1ccc(C2CC(c3cccs3)=NN2c2ccccc2)cc1 (stereo unspecified)"
label_value = 0

[[record]]
molecule = "O=C(NCCCN1CCOCC1)c1cnn2c(-c3ccccc3)cc(-c3ccccc3)nc12"
label_value = 1

[[record]]
molecule = "Cc1cc(C(=O)CSc2nc(N)cc(=O)[nH]2)c(C)n1Cc1ccco1"
label_value = 1

[[record]]
molecule = "CN[C@H](C(=O)NC[C@H]1O[C@@H](n2cnc3c(N)ncnc32)[C@H](O)[C@@H]1O)[C@@H](C)OCc1ccccc1"
label_value = 0


Would you kindly look at the next entry?
Query: Determine whether measured inhibition meets or exceeds 20% for CCC(C)c1ccc(NC(=S)N2CCCC2)cc1 (stereo unspecified)
Result: 0
